In what follows, each item is paired with its Ki for Sodium-dependent dopamine transporter (Rattus norvegicus, UniProt P23977).
Form entry: value (µM) — number only.

Example results:
1. Cc1ccc(C2(C#N)CCN(C)CC2)cc1 :: 41.8
2. CCOC(=O)C1(c2ccc(F)cc2)CCN(C)CC1 :: 10.7
3. CN1CCC(C#N)(c2ccc(Cl)cc2)CC1 :: 22

Please turn your attention to the following entry.
Incoming: Any idea what Ki came out for CN1CCC(C#N)(c2ccc(Cl)c(Cl)c2)CC1 on Sodium-dependent dopamine transporter (Rattus norvegicus, UniProt P23977)?
Outgoing: 2.67

* * *

target: Sodium-dependent serotonin transporter (Rattus norvegicus); experiment: Displacement of [3H]paroxetine from serotonin transporter (SERT)
Sequence (P31652 whole entry): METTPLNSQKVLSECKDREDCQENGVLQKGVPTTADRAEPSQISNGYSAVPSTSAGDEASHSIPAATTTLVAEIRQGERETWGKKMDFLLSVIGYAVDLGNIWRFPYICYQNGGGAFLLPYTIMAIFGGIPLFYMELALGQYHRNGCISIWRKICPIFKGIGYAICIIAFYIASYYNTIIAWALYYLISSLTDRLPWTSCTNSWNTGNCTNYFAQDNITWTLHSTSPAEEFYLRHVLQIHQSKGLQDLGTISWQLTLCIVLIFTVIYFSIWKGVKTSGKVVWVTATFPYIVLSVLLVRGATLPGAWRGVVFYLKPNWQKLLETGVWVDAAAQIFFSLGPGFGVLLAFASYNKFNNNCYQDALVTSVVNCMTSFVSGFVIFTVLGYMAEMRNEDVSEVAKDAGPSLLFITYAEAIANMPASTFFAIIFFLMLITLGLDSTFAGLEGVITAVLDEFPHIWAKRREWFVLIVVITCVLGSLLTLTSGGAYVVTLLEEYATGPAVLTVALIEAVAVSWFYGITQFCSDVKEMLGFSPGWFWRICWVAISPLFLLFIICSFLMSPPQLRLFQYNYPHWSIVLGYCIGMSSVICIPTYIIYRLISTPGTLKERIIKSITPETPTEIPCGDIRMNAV
test readout: Ki (nM)
Form entry: value (nM) — number only.

Example results:
1. CCOC(=O)C1(c2ccc(Cl)cc2)CCN(C)CC1 :: 277
2. Cc1ccc(C2(C#N)CCN(C)CC2)cc1 :: 13700
3. CN1CCC(C#N)(c2ccc(Cl)c(Cl)c2)CC1 :: 805
4. CN1CCC(C#N)(c2ccc(I)cc2)CC1 :: 430
5. CCOC(=O)C1(c2ccc3ccccc3c2)CCN(C)CC1 :: 7.2

Incoming: Reported Ki, compound CCOC(=O)C1(c2ccc(Cl)c(Cl)c2)CCN(C)CC1 : ____
Outgoing: 19

* * *

molecular target: Monoamine transporters; serotonin & dopamine (Rattus norvegicus) (UniProt P31652+P23977); experiment: Relative affinity for dopamine and serotonin transporters; type: protein assay
Sequence (P23977 whole entry, looked up): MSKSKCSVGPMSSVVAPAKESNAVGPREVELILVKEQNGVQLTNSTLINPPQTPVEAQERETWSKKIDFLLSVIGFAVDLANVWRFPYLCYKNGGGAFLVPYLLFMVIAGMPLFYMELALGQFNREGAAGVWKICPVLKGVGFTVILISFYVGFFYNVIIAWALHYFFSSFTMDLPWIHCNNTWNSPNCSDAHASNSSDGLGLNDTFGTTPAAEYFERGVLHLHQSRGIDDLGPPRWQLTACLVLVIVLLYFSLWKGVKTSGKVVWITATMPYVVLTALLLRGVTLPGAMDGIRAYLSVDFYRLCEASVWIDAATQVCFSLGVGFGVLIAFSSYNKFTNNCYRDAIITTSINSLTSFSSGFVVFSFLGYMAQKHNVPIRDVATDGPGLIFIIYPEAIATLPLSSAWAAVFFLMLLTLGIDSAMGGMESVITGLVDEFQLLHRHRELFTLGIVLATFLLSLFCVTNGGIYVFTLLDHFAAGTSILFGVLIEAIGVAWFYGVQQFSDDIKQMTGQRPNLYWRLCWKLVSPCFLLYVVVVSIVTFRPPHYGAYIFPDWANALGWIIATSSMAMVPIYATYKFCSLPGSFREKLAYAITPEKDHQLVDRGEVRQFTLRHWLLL
Sequence (P31652 whole entry, looked up): as the sequence (P31652 whole entry) above
test readout: Selectivity
Quick one: just the number, no unit, thanks!

Example results:
1. CCOC(=O)C1(c2ccc(Cl)cc2)CCN(C)CC1 :: 14.8
2. CCOC(=O)C1(c2ccc(F)cc2)CCN(C)CC1 :: 34.7
3. CN1CCC(C#N)(c2ccc(Cl)c(Cl)c2)CC1 :: 3.32
4. CN1CCC(C#N)(c2ccc(Cl)cc2)CC1 :: 4.31
5. CCOC(=O)C1(c2ccc3ccccc3c2)CCN(C)CC1 :: 158

Incoming: Reported Selectivity, compound CN1CCC(C#N)(c2ccc3ccccc3c2)CC1 : ____
Outgoing: 18.9

* * *

target: Sodium-dependent serotonin transporter (Rattus norvegicus)
test readout: Ki (nM)
Form entry: value (nM) — number only.

1. CCOC(=O)C1(c2ccc(C)cc2)CCN(C)CC1 :: 1610
2. CN1CCC(C#N)(c2ccc(Cl)cc2)CC1 :: 5110

Please turn your attention to the following entry.
Incoming: Any idea what Ki came out for CN1CCC(C#N)(c2cccc3ccccc23)CC1 on Sodium-dependent serotonin transporter (Rattus norvegicus)?
Outgoing: 1020

* * *

target: Sodium-dependent dopamine transporter (Rattus norvegicus); assay: Inhibition of binding affinity for dopamine transporter (DAT) by competition against bound [3H]WIN-35428 tested in vitro at a dose of 100 uM
Recorded measurements of inhibition, one per entry
Form entry: value (%) — number only.

Example results:
1) CCOC(=O)C1(c2ccc(C)cc2)CCN(C)CC1 :: 68
2) CN1CCC(C#N)(c2ccc(F)cc2)CC1 :: 45
3) CN1CCC(C#N)(c2ccc(Cl)cc2)CC1 :: 79
4) CCOC(=O)C1(c2ccc(Cl)cc2)CCN(C)CC1 :: 79

Please turn your attention to the following entry.
Incoming: Reported inhibition, compound Cc1ccc(C2(C#N)CCN(C)CC2)cc1 : ____
Outgoing: 68

Origin of values: ChEMBL document CHEMBL1131888
